assayed_system: BBS5
experimental_details: pooled miR-30 sensor sort-seq; sequence = guide strand; note: reference of the scale not given here
assay_context: shRNA
The entries below come with measured sensor-assay potency score (higher = more potent) values attached.
readout: sensor-assay potency score (higher = more potent)

INSERT INTO assay_data (ordered_residues, obs_value) VALUES
  ('TAAATATAAATTCAAAACGAGT', -1.56),
  ('AAATTTTGAATCTCTAATCTTT', -0.135),
  ('TTCGACTGTCAGAGCTTCGAGC', -0.723),
  ('TTTATCATATACATGTTCTTGT', 0.705),
  ('TTGAATTTGTTCGACTGTCAGA', -0.412),
  ('TTAGTATATAGAGAGCTTCAGT', -0.624),
  ('TATCATATACATGTTCTTGTGG', -0.0827),
  ('TTTCCTTAACTGATTCTTGTAG', -0.239),
  ('TTTTATCATATACATGTTCTTG', -0.69);

* * *

assayed_system: RAD18
experimental_details: pooled miR-30 sensor sort-seq; sequence = guide strand
assay_context: shRNA
Threshold rule: sensor-assay potency score (higher = more potent) greater than or equal to 0.5 is YES; below that, NO.

INSERT INTO results (ordered_residues, assayed_system, label) VALUES
  ('TTTCCTTCTTCTCTTCGCGTGA', 'RAD18', 'NO'),
  ('TTTTGTGAACAGAACTTCTGAG', 'RAD18', 'NO'),
  ('TTTATCAACAACTCTGATGTAG', 'RAD18', 'YES'),
  ('TTTTCTTTTATCAACAACTCTG', 'RAD18', 'NO'),
  ('TTTCATTGAGTTTACTAGCTTC', 'RAD18', 'NO'),
  ('TACTTTGACAGCAAGATTCTTT', 'RAD18', 'NO');

* * *

assayed_system: GUCY2F
experimental_details: pooled miR-30 sensor sort-seq; sequence = guide strand
assay_context: shRNA
Threshold rule: sensor-assay potency score (higher = more potent) greater than or equal to -0.2 is Yes; below that, No.

INSERT INTO results (ordered_residues, label) VALUES
  ('TTATAAAGTAAGCAAATCCATT', 'No'),
  ('TGAAGAATTGTAACAGTGCTGA', 'No'),
  ('TTCCATTTCCATTTGAATCTGT', 'Yes'),
  ('TAGATGGTTCCAAACAACGGTG', 'No'),
  ('TAATCTGGAAGCTTACACTGGC', 'Yes'),
  ('TTTCACATCTTGATTTGTCAGT', 'No'),
  ('TTGAATTGTAGATGGTTCCAAA', 'No'),
  ('TAATGGTCAACACTGCATCATA', 'No');

* * *

assayed_system: KIAA0101
experimental_details: pooled miR-30 sensor sort-seq; sequence = guide strand
assay_context: shRNA
The entries below come with measured sensor-assay potency score (higher = more potent) values attached.
readout: sensor-assay potency score (higher = more potent)

INSERT INTO results (ordered_residues, obs_value) VALUES
  ('ATTTGTGTGATCAGGTTGCAAA', -1.36),
  ('TTCCTTTTTGCCACTTGGGAGT', -1.06),
  ('TTCAGGAATCTGATTCTCTTTT', -0.732),
  ('TTATTTTCAGCTTTCCTCGATG', -0.0942),
  ('TTTTTCAGAATCTTTAGGGGAC', 0.436),
  ('TTTGCTTTTCCTAAGCCACTGC', 0.846);
